- testSystem: SCRIB_2, Q14160
- Sequence (Q14160 857-960): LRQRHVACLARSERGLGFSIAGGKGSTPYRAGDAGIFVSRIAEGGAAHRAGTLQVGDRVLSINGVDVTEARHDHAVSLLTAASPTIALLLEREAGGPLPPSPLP
- test: holdup assay
- Design: key: below the threshold = too weak to quantify, mostly under pKd 3.1 to 4
- conditionParameters: plain residues with an end cap or a label only (N-terminal biotin on a linker: ahx)
reportedEndpoint: pKd
Answers are plain numbers.

{"columns": ["binder", "pKd"],
 "data": [
  ["KDECVIATEV [DLL1, O00548]", 3.82],
  ["AKPQPVDSWV [ARVCF, O00192]", 5.16],
  ["HSATSVHTSV [MTMR1, Q13613]", 3.95]
]}

Given item YNSFLSVTTV [PDZRN3, Q9UPQ7] , the value recorded as its pKd is 3.69
